Attribution: patent US10098878B2

SYSTEM_TESTED: HIF-2α HIS TAG-PASB Domain (Homo sapiens, UniProt Q99814)
Construct: 100 nM HIF-2α HIS TAG-PASB Domain
Sequence (Q99814 240-350 limits assumed): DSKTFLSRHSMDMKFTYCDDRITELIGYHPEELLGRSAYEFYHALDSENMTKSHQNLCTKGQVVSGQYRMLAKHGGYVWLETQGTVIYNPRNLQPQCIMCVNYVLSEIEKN
TEST_METHOD_NOTES: HIF-2α Scintillation Proximity Assay (SPA)
Format: binding
ASSAY_CONTEXT: 150 nM Compound 211 probe, 100 nM HIF-2α HIS TAG-PASB Domain; read-out: SPA IC50
molecules and their reported log10 IC50
Remember, log10 of IC50, in nM.

Sample records with log10 IC50:
[
  {
    "MOLECULE": "C[C@@]1(F)Cc2c(Oc3cc(F)cc(C#N)c3)ccc(S(C)(=O)=O)c2[C@@H]1O",
    "SYSTEM_TESTED": "HIF-2α HIS TAG-PASB Domain (Homo sapiens, UniProt Q99814)",
    "log10 IC50": 3.31
  },
  {
    "MOLECULE": "CC(C)(C)OC(=O)N[C@H]1C[C@@H](O)c2c(S(=O)(=O)C(F)(F)F)ccc(Oc3cc(F)cc(C#N)c3)c21 (relative stereo)",
    "SYSTEM_TESTED": "HIF-2α HIS TAG-PASB Domain (Homo sapiens, UniProt Q99814)",
    "log10 IC50": 3.34
  },
  {
    "MOLECULE": "Cc1cc(Oc2cc(F)cc(C#N)c2)c2c(c1S(C)(=O)=O)C(O)C(F)(F)C2 (stereo not shown)",
    "SYSTEM_TESTED": "HIF-2α HIS TAG-PASB Domain (Homo sapiens, UniProt Q99814)",
    "log10 IC50": 2.90
  },
  {
    "MOLECULE": "O=S1(=O)c2ccc(Oc3ccc(F)c(F)c3)c(C(F)F)c2[C@@H](O)C1(F)F",
    "SYSTEM_TESTED": "HIF-2α HIS TAG-PASB Domain (Homo sapiens, UniProt Q99814)",
    "log10 IC50": 1.38
  }
]

Note down log10 IC50 recorded for `CS(=O)(=O)c1ccc(Oc2cncc(Br)c2)c2c1[C@H](O)[C@H](F)C2`
3.11

====

SYSTEM_TESTED: HIF-2α HIS TAG-PASB Domain (Homo sapiens, UniProt Q99814)
Construct: 100 nM HIF-2α HIS TAG-PASB Domain
TEST_METHOD_NOTES: HIF-2α Scintillation Proximity Assay (SPA)
Type: binding
ASSAY_CONTEXT: SPA IC50, 150 nM Compound 211 probe, 100 nM HIF-2α HIS TAG-PASB Domain
Description: The total assay volume was about 100 μL in the following configuration: 2 μL compound in 100% DMSO, 88 μL buffer with protein and probe and 10 μL of SPA beads. […] The percent inhibition was determined and IC50 values were calculated using the Dotmatics system based on the following equation: % inhibition=[(high control−sample)/(high control−low control)]×100.
pIC50: −log10 of the molar value.
molecules and their reported pIC50

[
  {
    "MOLECULE": "O=S1(=O)c2ccc(Oc3cc(F)cc(Cl)c3)c(Br)c2[C@@H](O)C1(F)F [Compound 167]",
    "TEST_VALUE": "> 8.30"
  },
  {
    "MOLECULE": "O=S1(=O)c2ccc(Oc3cc(F)cc(Cl)c3)c(C(F)(F)F)c2C(O)C1(F)F (centres unmarked) [Compound 124]",
    "TEST_VALUE": "> 8.30"
  },
  {
    "MOLECULE": "[2H]C1(O)c2c(ccc(Oc3cc(F)cc(Cl)c3)c2C(F)F)S(=O)(=O)C1(F)F (centres unmarked) [Compound 135]",
    "TEST_VALUE": "> 8.30"
  }
]

Note down pIC50 recorded for O=S1(=O)c2ccc(Oc3cc(F)cc(Cl)c3)c(C(F)F)c2C(O)C1(F)F (centres unmarked) [Compound 128]
> 8.30

Note down pIC50 recorded for O=S1(=O)c2ccc(Oc3cc(F)cc(Cl)c3)c(Br)c2[C@H](O)C1(F)F [Compound 169]
7.22

Note down pIC50 recorded for O=S1(=O)c2ccc(Oc3cncc(Cl)c3)c(C(F)F)c2C(O)C1(F)F (centres unmarked) [Compound 145]
6.64

Note down pIC50 recorded for O=S1(=O)c2ccc(Oc3cc(F)cc(Cl)c3)cc2C(O)C1(F)F (centres unmarked) [Compound 126]
5.73

Note down pIC50 recorded for NC1c2c(ccc(Oc3cc(F)cc(F)c3)c2Br)S(=O)(=O)C1(F)F (centres unmarked) [Compound 140]
> 8.30
